experimentSummary: Inhibition of aurora B in human HeLa cells assessed as increase of >= 4N DNA level after 24 hrs by Hoechst staining
recordedMetric: EC50 (µM)

sampleSmiles: CNc1nccc(-c2cccnc2Oc2ccc(NC(=O)c3ccccc3Nc3ccccc3)c(C)c2)n1
u: µM
assayValue: 1.45

(a) CNc1nccc(-c2cccnc2Oc2ccc(NC(=O)c3ccccc3Nc3ccccc3)cc2C)n1
(b) CNc1nccc(-c2cccnc2Oc2ccc(Nc3nnc(-c4ccc(F)cc4)c4ccccc34)cc2)n1
(c) CNc1nccc(-c2cccnc2Oc2ccc(Nc3nnc(-c4ccccc4)c4ccccc34)cc2)n1
Task field, ranking: reported EC50, descending order. Form entry: ranked labels (order as requested). a, b, c
(a: 0.089 µM, b: 0.024 µM, c: 0.015 µM)

====

experimentSummary: Inhibition of aurora B in human HeLa cells assessed as increase of >= 4N DNA level after 24 hrs by Hoechst staining
pEC50: −log10 of the molar value.
recordedMetric: pEC50

Please review the following examples before continuing.
sampleSmiles: CNc1nccc(-c2cccnc2Oc2ccc(NC(=O)c3ccccc3Nc3ccccc3)cc2)n1
assayValue: 7.82
//
sampleSmiles: CNc1nccc(-c2cccnc2Oc2ccc(NC(=O)c3cccc(Oc4ccccc4)c3)cc2C)n1
assayValue: < 5.92
//
sampleSmiles: CNc1nccc(-c2cccnc2Oc2ccc(NC(=O)c3ccccc3Nc3ccc(F)cc3)cc2)n1
assayValue: 7.55
//
sampleSmiles: CNc1nccc(-c2cccnc2Oc2ccc(NC(=O)c3ccc(Cl)cc3)cc2C)n1
assayValue: < 5.92
//
sampleSmiles: CNc1nccc(-c2cccnc2Oc2ccc(NC(=O)c3cc(F)ccc3Nc3ccccc3)cc2)n1
assayValue: 7.70
//
sampleSmiles: CNc1nccc(-c2cccnc2Oc2ccc(NC(=O)c3cccc(C(F)(F)F)c3)cc2C)n1
assayValue: < 5.92
//
sampleSmiles: CNc1nccc(-c2cccnc2Oc2ccc(NC(=O)c3cccc(Cl)c3)cc2C)n1
assayValue: < 5.92

API: the following record is the query input.
Fill in reported pEC50 for this entry: CNc1nccc(-c2cccnc2Oc2ccc(NC(=O)c3ccccc3Oc3ccccc3)cc2C)n1 < 5.92
